Measured 50% inhibition concentration, Regnase-1 phosphorylation by TBK1 (AlphaScreen), listed per entry for reference.
# target.entity: T1, full-length human Regnase-1 with a FLAG tag on the N-terminal side and a biotin ligase BirA recognition … (human, UniProt Q5D1E8 1-599, biotinylated at the BirA recognition sequence when required)
# T1 sequence: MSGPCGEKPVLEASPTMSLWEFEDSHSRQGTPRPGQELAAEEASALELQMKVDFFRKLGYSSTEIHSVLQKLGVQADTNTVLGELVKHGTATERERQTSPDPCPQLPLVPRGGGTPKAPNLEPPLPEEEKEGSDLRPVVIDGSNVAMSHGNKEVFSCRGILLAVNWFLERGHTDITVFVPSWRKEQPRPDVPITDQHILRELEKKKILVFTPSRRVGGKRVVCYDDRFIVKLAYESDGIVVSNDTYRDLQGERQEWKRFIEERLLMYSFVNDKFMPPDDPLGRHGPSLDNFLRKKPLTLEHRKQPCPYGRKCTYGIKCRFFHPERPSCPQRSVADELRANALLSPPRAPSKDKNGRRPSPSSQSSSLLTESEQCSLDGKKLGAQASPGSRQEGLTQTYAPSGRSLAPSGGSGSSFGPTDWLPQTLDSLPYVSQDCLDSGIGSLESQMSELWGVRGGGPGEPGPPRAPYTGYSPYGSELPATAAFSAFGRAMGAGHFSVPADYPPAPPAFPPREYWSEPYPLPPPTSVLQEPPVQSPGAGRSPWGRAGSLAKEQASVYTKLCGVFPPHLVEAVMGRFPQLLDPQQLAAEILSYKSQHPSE
# experiment.description: cell-based or functional assay
Positions of bridges follow the written chain, without caps; N, C: chain ends. Non-standard residues stand in square brackets, D forms with d. *: point of attachment. NMeA = CN[C@@H](C)C(=O)O; Pyrrolidide = C1CCN(*)C1; dNMeA = CN[C@H](C)C(=O)O
Phrase the answer as number then unit, nothing more needed.

{"binder": "[NMeA]YIWDFFGDLD-Pyrrolidide (lactam N-11) [PP4]", "reading": "61.9 µM"}

# input Look up 50% inhibition concentration, Regnase-1 phosphorylation by TBK1 (AlphaScreen): [dNMeA]KHASAWYRIWD-Pyrrolidide (lactam N-12) [PP3]
# output 3.9 µM

Reference source for all entries: patent US20250018014A1
